# Tested on: Pseudomonas aeruginosa
# assay-info: Inhibition of Pseudomonas aeruginosa PAM 2035 AmpC assessed as minimum concentration of compound needed to reduce the MIC of aztreonam to 4 ug/ml
readout: MEC (µg/mL)

>  <smiles-notation>
C[C@H]1Cc2cccc(C(=O)O)c2OB1O

>  <measured-on>
Pseudomonas aeruginosa

>  <measurement>
1.25

$$$$
>  <smiles-notation>
CSCC(=O)N[C@H]1Cc2ccc(F)c(C(=O)O)c2OB1O

>  <measured-on>
Pseudomonas aeruginosa

>  <measurement>
10

$$$$
>  <smiles-notation>
CSCCOc1ccc2c(c1C(=O)O)OB(O)[C@@H](Sc1nncs1)C2

>  <measured-on>
Pseudomonas aeruginosa

>  <measurement>
10

$$$$

P: COc1ccc2c(c1C(=O)O)OB(O)[C@@H](Sc1nncs1)C2
Q: O=C(O)c1nccc2c1OB(O)[C@@H]1C[C@H]21
Ask | Kindly compare P with Q and tell me which has the lower MEC figure. // output: label of the selected item
Reply | Q
(Q: 2.5 µg/mL, P: 10 µg/mL)

* * *

# System: Escherichia coli
# assay-info: Inhibition of Escherichia coli EC302 TEM-10 assessed as minimum concentration of compound needed to reduce the MIC of aztreonam to 4 ug/ml
readout: MEC (µg/mL)

>  <smiles-notation>
O=C(O)c1c(F)ccc2c1OB(O)[C@H]1C[C@@H]21

>  <measurement>
1.25

$$$$
>  <smiles-notation>
COc1ccc2c(c1C(=O)O)OB(O)C=C2

>  <measurement>
20

$$$$
>  <smiles-notation>
O=C(O)c1c(F)ccc2c1OB(O)[C@@H](Sc1nncs1)C2

>  <measurement>
5

$$$$
>  <smiles-notation>
O=C(O)c1c(OC(F)F)ccc2c1OB(O)[C@@H](Sc1nncs1)C2

>  <measurement>
20

$$$$
>  <smiles-notation>
CSCC(=O)N[C@H]1Cc2ccc(Sc3nnc(N)s3)c(C(=O)O)c2OB1O

>  <measurement>
2.5

$$$$

P: CSCC(=O)N[C@H]1Cc2cccc(C(=O)O)c2OB1O
Q: COc1ccc2c(c1C(=O)O)OB(O)C(F)=C2
Ask | Kindly compare P with Q and tell me which has the lower MEC figure. // output: label of the selected item
Reply | Q
(Q: 1.25 µg/mL, P: 5 µg/mL)

a: O=C(O)c1nccc2c1OB(O)[C@@H]1C[C@H]21
b: CSCC(=O)N[C@H]1Cc2ccc(Sc3nncn3C)c(C(=O)O)c2OB1O
Ask | Which one would you say has the larger MEC value: a , or b ? // output: label of the selected item
Reply | b

I: CSCC(=O)N[C@H]1Cc2ccc(O)c(C(=O)O)c2OB1O
II: O=C(O)c1c(OCC2CC2)ccc2c1OB(O)[C@@H](Sc1nncs1)C2
Ask | Which one would you say has the larger MEC value: I , or II ? // output: label of the selected item
Reply | II

* * *

# System: Pseudomonas aeruginosa
# assay-info: Inhibition of Pseudomonas aeruginosa PAM 2035 AmpC assessed as minimum concentration of compound needed to reduce the MIC of aztreonam to 4 ug/ml
readout: MEC

>  <molecule>
COc1ccc2c(c1C(=O)O)OB(O)C(CO)C2 (configuration not stated)

>  <readout>
MEC

>  <measurement>
> 20 µg/mL

$$$$
>  <molecule>
O=C(O)c1c(OC2COC2)ccc2c1OB(O)[C@@H](Sc1nncs1)C2

>  <readout>
MEC

>  <measurement>
> 20 µg/mL

$$$$
>  <molecule>
CSCC(=O)N[C@H]1Cc2ccc(Sc3nnc(N)s3)c(C(=O)O)c2OB1O

>  <readout>
MEC

>  <measurement>
> 20 µg/mL

$$$$
>  <molecule>
O=C(O)c1c(OCc2nncs2)ccc2c1OB(O)[C@@H](Sc1nncs1)C2

>  <readout>
MEC

>  <measurement>
> 20 µg/mL

$$$$
>  <molecule>
CSCC(=O)N[C@H]1Cc2ccc(Sc3nncn3C)c(C(=O)O)c2OB1O

>  <readout>
MEC

>  <measurement>
> 20 µg/mL

$$$$
>  <molecule>
CSCC(=O)N[C@H]1Cc2ccc(OCC(=O)O)c(C(=O)O)c2OB1O

>  <readout>
MEC

>  <measurement>
> 20 µg/mL

$$$$
>  <molecule>
COc1ccc2c(c1C(=O)O)OB(O)[C@@H](CCO)C2

>  <readout>
MEC

>  <measurement>
20 µg/mL

$$$$
>  <molecule>
CSCC(=O)N[C@H]1Cc2ccc(SCC(N)=O)c(C(=O)O)c2OB1O

>  <readout>
MEC

>  <measurement>
> 20 µg/mL

$$$$
>  <molecule>
CSCC(=O)N[C@H]1Cc2ccc(SCCO)c(C(=O)O)c2OB1O

>  <readout>
MEC

>  <measurement>
> 20 µg/mL

$$$$
>  <molecule>
COc1ccc2c(c1C(=O)O)OB(O)C=C2

>  <readout>
MEC

>  <measurement>
10 µg/mL

$$$$

Ask | Given the molecule COCCOc1ccc2c(c1C(=O)O)OB(O)[C@@H](Sc1nncs1)C2 , what is its reported MEC?
Reply | > 20 µg/mL

Ask | Given the molecule O=C(O)c1c(OCCF)ccc2c1OB(O)[C@@H](Sc1nncs1)C2 , what is its reported MEC?
Reply | 20 µg/mL

* * *

Recorded MEC values for a group of compounds are listed next.
# System: Escherichia coli
# assay-info: Inhibition of Escherichia coli EC302 TEM-10 assessed as minimum concentration of compound needed to reduce the MIC of aztreonam to 4 ug/ml

Example results:
>  <compound>
O=C(O)c1cccc2c1OB(O)[C@@H](Sc1ncccn1)C2

>  <MEC>
> 20 µg/mL

$$$$
>  <compound>
COc1ccc2c(c1C(=O)O)OB(O)C(CO)C2 (stereo not drawn)

>  <MEC>
> 20 µg/mL

$$$$
>  <compound>
CSCCOc1ccc2c(c1C(=O)O)OB(O)[C@@H](Sc1nncs1)C2

>  <MEC>
> 20 µg/mL

$$$$
>  <compound>
O=C(O)c1cccc2c1OB(O)[C@@H](Sc1nccs1)C2

>  <MEC>
> 20 µg/mL

$$$$
>  <compound>
C[C@@H]1Cc2cccc(C(=O)O)c2OB1O

>  <MEC>
> 20 µg/mL

$$$$
>  <compound>
COc1ccc2c(c1C(=O)O)OB(O)[C@@H](NC(=O)CSC)C2

>  <MEC>
< 0.3 µg/mL

$$$$
>  <compound>
O=C(O)c1c(OC2COC2)ccc2c1OB(O)[C@@H](Sc1nncs1)C2

>  <MEC>
> 20 µg/mL

$$$$
>  <compound>
O=C(O)c1c(F)ccc2c1OB(O)[C@@H]1C[C@H]21

>  <MEC>
0.16 µg/mL

$$$$
>  <compound>
Cn1cnnc1S[C@H]1Cc2cccc(C(=O)O)c2OB1O

>  <MEC>
> 20 µg/mL

$$$$
>  <compound>
Nn1cnnc1S[C@H]1Cc2cccc(C(=O)O)c2OB1O

>  <MEC>
> 20 µg/mL

$$$$

Ask | Param readout= MEC; system= Escherichia coli; entry= O=C(O)c1cccc2c1OB(O)[C@@H](Sc1ccccn1)C2 ; returns value.
Reply | > 10 µg/mL

Ask | Param readout= MEC; system= Escherichia coli; entry= CS[C@H]1Cc2cccc(C(=O)O)c2OB1O ; returns value.
Reply | > 20 µg/mL

Ask | Param readout= MEC; system= Escherichia coli; entry= C[C@H]1Cc2cccc(C(=O)O)c2OB1O ; returns value.
Reply | > 20 µg/mL
